Biological target: DCN1 (DCUND1) protein PONY domain (Homo sapiens (Human))
Assay: TR-FRET assay, DCN1 binding with FAM-labeled probe
Details: TR FRET IC50 1 hr (nM), 1 hr after treatment with compound
recorded_metric: IC50

Answered examples (3):
{"columns": ["molecule", "recorded_metric", "result"],
 "data": [
  ["CCN1C(=O)[C@@H](NC(=O)c2cccc(C(F)(F)F)c2)[C@@H](C2CC2)c2c(C(=O)N(C)[C@@H](C)C#N)nn(C3CCOCC3)c21", "IC50", "200 to 1000 nM"],
  ["CCN1C(=O)[C@H](NC(=O)c2cccc(C(F)(F)F)c2)[C@H](c2ccc(F)cc2)c2c(C(=O)N3CC[C@@H]3C#N)nn(-c3ccccc3)c21", "IC50", "1000 to 3000 nM"],
  ["CCN1C(=O)[C@@H](NC(=O)c2cccc(C(F)(F)F)c2)[C@@H](C2CCC2)c2c(C(=O)N3CCC[C@H]3C#N)nn(C3CCOCC3)c21", "IC50", "200 to 1000 nM"]
]}

IN: Name the reported IC50 value associated with the molecule CCN1C(=O)[C@H](NC(=O)c2cccc(C(F)(F)F)c2)[C@H](c2ccc(F)cc2)c2c(C(=O)N3CCC[C@H]3C#N)nn(C3CC3)c21
OUT: 1000 to 3000 nM

IN: Consider next the molecule CCN1C(=O)[C@@H](NC(=O)c2cc(F)ccc2C(F)(F)F)[C@@H](C2CC2)c2c(C(=O)N3[C@H](C#N)C[C@H]4C[C@H]43)nn(C3CCOCC3)c21 in the same way.
OUT: 1000 to 3000 nM

IN: Consider next the molecule CCN1C(=O)[C@@H](NC(=O)c2cccc(C(F)(F)F)c2)[C@H](c2ccc(F)cc2)c2c(CN(C)C(=O)/C=C/C(=O)OC)nn(-c3ccccc3)c21 (racemic) in the same way.
OUT: 200 to 1000 nM

###

Listed compounds paired with reported pIC50
Molecular target: DCN1 (DCUND1) protein PONY domain (Homo sapiens (Human), UniProt Q96GG9)
Sequence (Q96GG9 60-248): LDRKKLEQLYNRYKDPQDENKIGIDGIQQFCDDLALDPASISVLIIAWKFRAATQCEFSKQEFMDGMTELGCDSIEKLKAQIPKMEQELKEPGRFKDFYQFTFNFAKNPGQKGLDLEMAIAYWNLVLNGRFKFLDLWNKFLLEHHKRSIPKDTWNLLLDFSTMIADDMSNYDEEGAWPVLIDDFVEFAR
Assay: TR-FRET assay, DCN1 binding with FAM-labeled probe
Details: 24 hr after treatment with compound; read-out: TR FRET IC50 24 hr
Method: A TR-FRET assay was performed to evaluate the ability of the compounds to bind the DCN-1 protein. The TR-FRET assay was designed following the Scott et al. protocol (Scott et al., Nat Chem Biol. 2017 August; 13(8): 850-857. Doi:10.1038/nchembio.2386). […] The TR-FRET ratio between Tb-DCN1 and the FAM-labeled probe was measured in a 384-well opti-plate (Perkin Elmer) using a plate reader (BMG) at 1, 5, and 24 hrs after treatment with compound (final DMSO concentration of 0.1%).
pIC50: −log10 of the molar value.

Answered examples (3):
{"columns": ["compound", "pIC50"],
 "data": [
  ["C=CC(=O)N[C@H](C)c1nn(-c2ccccc2)c2c1[C@H](c1ccc(F)cc1)[C@@H](NC(=O)c1nccc(C(F)(F)F)n1)C(=O)N2CC", "5.52 to 6.00"],
  ["CCN1C(=O)[C@@H](NC(=O)c2cccc(C(F)(F)F)c2)[C@@H](c2ccc(F)cc2)c2c(CNC(=O)/C=C/C(=O)OC)nn(-c3ccccc3)c21 (racemic)", "≥ 6.70"],
  ["CCN1C(=O)[C@H](NC(=O)c2cccc(C(F)(F)F)c2)[C@H](c2ccc(F)cc2)c2c(C(=O)N3CCC[C@H]3C#N)nn(-c3ccccc3)c21", "5.52 to 6.00"]
]}

IN: Name the reported pIC50 value associated with the compound CCN1C(=O)[C@@H](NC(=O)c2cccc(C(F)(F)F)c2)[C@@H](C2CC2)c2c(C(=O)N3CCN(C)C[C@H]3C#N)nn(C3CCOCC3)c21 (single isomer, unassigned)
OUT: ≥ 6.70

IN: Consider next the compound CCN1C(=O)[C@@H](NC(=O)c2cccc(C(F)(F)F)c2)[C@@H](c2ccc(F)cc2)c2c(C(=O)N3CCC[C@H]3C#N)nn(-c3cccc(OCCN4CCC5(CC4)COC5)c3)c21 in the same way.
OUT: ≥ 6.70

IN: Consider next the compound CCN1C(=O)[C@@H](NC(=O)c2cccc(C(F)(F)F)c2)[C@@H](c2ccc(F)cc2)c2c(C(=O)N3[C@H](C#N)C[C@H]4C[C@H]43)nn(C3CCOCC3)c21 in the same way.
OUT: ≥ 6.70

IN: Consider next the compound CCN1C(=O)[C@@H](NC(=O)c2cccc(C(F)(F)F)c2)[C@@H](C2CC2)c2c(C(=O)N3[C@@H](C#N)C[C@@H]4C[C@@H]43)nn(C3CCOCC3)c21 in the same way.
OUT: 5.52 to 6.00

###

Biological target: DCN2 (DCUND2) protein PONY domain (Homo sapiens (Human))
Sequence (Q6PH85 60-248): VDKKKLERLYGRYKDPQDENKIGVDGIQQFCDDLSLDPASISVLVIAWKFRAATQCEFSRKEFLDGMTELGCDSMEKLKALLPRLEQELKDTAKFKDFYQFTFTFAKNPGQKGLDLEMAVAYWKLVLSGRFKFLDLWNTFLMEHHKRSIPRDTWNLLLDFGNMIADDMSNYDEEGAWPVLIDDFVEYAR
Assay: Measurement of Kinact/KI in the DCN2 TR-FRET Assay
Settings: time-dependent IC50 over 24 hrs
recorded_metric: Ki (µM)
Enter your answer as a number in µM; do not include the unit.

Answered examples (3):
{"columns": ["molecule", "Ki / µM"],
 "data": [
  ["CCN1C(=O)[C@@H](NC(=O)c2cccc(C(F)(F)F)c2)[C@@H](C2CC2)c2c(C(=O)N3[C@H](C#N)C[C@H]4C[C@H]43)nn(C3CCOCC3)c21", 0.0994],
  ["CCN1C(=O)[C@@H](NC(=O)c2cccc(C(F)(F)F)c2)[C@@H](c2ccc(F)cc2)c2c(C(=O)N(C)[C@H](C#N)CCN(C)C)nn(C3CCOCC3)c21", 0.000488],
  ["CCN1C(=O)[C@@H](NC(=O)c2cccc(C(F)(F)F)c2)[C@@H](C2CC2)c2c(C(=O)N3CCNC[C@H]3C#N)nn(-c3ccccc3)c21", 0.0958]
]}

IN: Name the reported Ki value associated with the molecule CCc1cccc(C(=O)N[C@@H]2C(=O)N(CC)c3c(c(C(=O)N4[C@H](C#N)C[C@H]5C[C@H]54)nn3C3CCOCC3)[C@@H]2C2CC2)c1
OUT: 0.017

IN: Consider next the molecule CCN1C(=O)[C@@H](NC(=O)c2cccc(C(F)(F)F)c2)[C@@H](C2CC2)c2c(C(=O)N3C[C@H](OC)C[C@H]3C#N)nn(C3CCOCC3)c21 in the same way.
OUT: 0.161

###

Listed molecules paired with reported pIC50
Tested on: Cullin-3 (CUL3) neddylation
Experiment: AlphaLISA assay for Cullin-3 (CUL3) neddylation in TF 1 cells
Type: cell-based
Details: Homo sapiens, TF-1, 3 h, 3 hours treatment
pIC50: −log10 of the molar value.

{"columns": ["compound_structure", "pIC50"],
 "data": [
  ["CCN1C(=O)[C@H](NC(=O)c2cccc(C(F)(F)F)c2)[C@H](c2ccc(F)cc2)c2c(C(=O)N3CC[C@H]3C#N)nn(-c3ccccc3)c21", "< 6.00"]
]}

IN: Record CCN1C(=O)[C@H](NC(=O)c2cccc(C(F)(F)F)c2)[C@H](c2ccc(F)cn2)c2c([C@@H](C)NC#N)nn(-c3ccccc3)c21 : what is its pIC50 with Cullin-3 (CUL3) neddylation?
OUT: < 6.00

IN: Consider next the molecule CCN1C(=O)[C@@H](NC(=O)c2cccc(C(F)(F)F)c2)[C@@H](C2CC2)c2c(C(=O)N3CCOC[C@@H]3C#N)nn(-c3ccccc3)c21 in the same way.
OUT: < 6.00

IN: Consider next the molecule CCN1C(=O)[C@H](NC(=O)c2cccc(C(F)(F)F)c2)[C@H](c2ccc(F)cc2)c2c(C(=O)N3CCC[C@H]3C#N)nn(-c3cccc(OCCN(C)C4COC4)c3)c21 in the same way.
OUT: < 6.00

IN: Consider next the molecule CCN1C(=O)[C@@H](NC(=O)c2cccc(C(F)(F)F)c2)[C@@H](c2ccc(F)cc2)c2c(C(=O)N(C)[C@@H](C#N)CCN3CC4CC(C3)O4)nn(-c3ccccc3)c21 in the same way.
OUT: ≥ 7.00

###

Listed compounds paired with reported pIC50
Target: DCN1 (DCUND1) protein PONY domain (Homo sapiens (Human))
Test: TR-FRET assay, DCN1 binding with FAM-labeled probe
Settings: 24 hr after treatment with compound; read-out: TR FRET IC50 24 hr
Protocol: A TR-FRET assay was performed to evaluate the ability of the compounds to bind the DCN-1 protein. The TR-FRET assay was designed following the Scott et al. protocol (Scott et al., Nat Chem Biol. 2017 August; 13(8): 850-857. Doi:10.1038/nchembio.2386). […] The TR-FRET ratio between Tb-DCN1 and the FAM-labeled probe was measured in a 384-well opti-plate (Perkin Elmer) using a plate reader (BMG) at 1, 5, and 24 hrs after treatment with compound (final DMSO concentration of 0.1%).
pIC50: −log10 of the molar value.

{"columns": ["compound", "pIC50"],
 "data": [
  ["CCN1C(=O)[C@@H](NC(=O)c2cccc(C(F)(F)F)c2)[C@@H](c2ccc(F)cc2)c2c(C3(N(C)C#N)CC3)nn(-c3ccccc3)c21 (racemic) [Compound I-52]", "5.52 to 6.00"],
  ["CCN1C(=O)[C@@H](NC(=O)c2nccc(C(F)(F)F)n2)[C@H](c2ccc(F)cc2)c2c(CNC(=O)/C=C/C(=O)N(C)C)nn(-c3ccccc3)c21 [Compound I-460]", "6.00 to 6.70"],
  ["C=C(CN1CCC(F)(F)C1)C(=O)NCc1nn(-c2ccccc2)c2c1[C@H](c1ccc(F)cc1)[C@@H](NC(=O)c1cccc(C(F)(F)F)c1)C(=O)N2CC (racemic) [Compound I-32]", "≥ 6.70"],
  ["CCN1C(=O)[C@@H](NC(=O)c2cccc(C(F)(F)F)c2)[C@@H](c2ccc(F)cc2)c2c([C@H](NC#N)C(F)F)nn(-c3ccccc3)c21 [Compound I-411]", "≥ 6.70"]
]}

Here is the next item to consider.
IN: Name the reported pIC50 value associated with the compound C=C(C)C(=O)Nc1nn(-c2ccccc2)c2c1[C@H](c1ccc(F)cc1)[C@H](NC(=O)c1cccc(C(F)(F)F)c1)C(=O)N2CC (racemic) [Compound I-26]
OUT: ≥ 6.70
